target: Thyroid hormone receptor alpha (Homo sapiens, UniProt P10827)
Sequence (P10827 whole entry): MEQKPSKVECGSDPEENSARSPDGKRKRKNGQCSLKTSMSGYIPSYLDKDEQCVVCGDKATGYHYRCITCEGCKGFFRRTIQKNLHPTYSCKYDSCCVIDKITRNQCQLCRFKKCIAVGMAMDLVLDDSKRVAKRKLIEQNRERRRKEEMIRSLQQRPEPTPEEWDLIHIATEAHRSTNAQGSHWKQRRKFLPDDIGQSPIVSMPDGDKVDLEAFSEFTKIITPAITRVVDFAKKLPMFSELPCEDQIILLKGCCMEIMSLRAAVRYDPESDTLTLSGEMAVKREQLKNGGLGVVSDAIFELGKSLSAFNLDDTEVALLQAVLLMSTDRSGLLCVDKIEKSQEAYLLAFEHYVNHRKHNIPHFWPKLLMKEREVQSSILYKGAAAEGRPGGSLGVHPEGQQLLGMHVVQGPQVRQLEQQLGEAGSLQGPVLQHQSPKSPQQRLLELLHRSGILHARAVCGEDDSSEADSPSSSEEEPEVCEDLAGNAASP
Could you please mark 1 for values of IC50 below 100 nM and 0 for values at or above it?

mol | label
O=C(O)CCC(=O)Nc1cc(Cl)c(-c2cccc3c(Br)c(O)ccc23)c(Cl)c1 | 1
COc1ccc2c(-c3c(Cl)cc(NC(=O)CC(=O)O)cc3Cl)cccc2c1C(C)C | 1
O=C(O)Cc1cc(Cl)c(Oc2ccc(O)c(Br)c2)c(Cl)c1 | 0
O=C(O)Nc1cc(Cl)c(-c2cccc3c(-c4ccccc4)c(O)ccc23)c(Cl)c1 | 0
O=C(O)CCNc1cc(Cl)c(-c2cccc3c(Br)c(O)ccc23)c(Cl)c1 | 1
